Test system: GST-tagged Cn
Experiment Notes: PEPperPRINT peptide microarray binding assay with GST-tagged Cn
Protocol Conditions: GST-tagged Cn, mean over the chip spots listed under Location on chip
# Chip Fluorescence (mean) listing for each entry below

Seq	Tested Target	Chip Fluorescence (mean)
LKDEVPEVRLNIISNL [SeqRCN1_Ramazzottius_varieornatus]	GST-tagged Cn	-0.7319
TFTDNPQYTIKLVETD [SeqRBM_9774]	GST-tagged Cn	0.09387
VRFTLPEKQVHSSAPS [SeqRBM_2315]	GST-tagged Cn	-0.8346
RAYINPFMMFRSGGNK [SeqSFB3_Cordyceps_militaris]	GST-tagged Cn	-0.6148
TFWTNPQYKVKLEDPD [SeqRBMlowT_2919]	GST-tagged Cn	0.1413
TFWTNPQFRVKLEDPD [SeqRBMlowT_223]	GST-tagged Cn	-1.105
